- Test system: P388/BCRP cell line
- assayProcedure: Overcoming anticancer drug resistance in vivo (survival of tumor-implanted mice)
- Parameters: species or system CDF1 mice
- conditionDetails: Table 6; compound 100 mg/kg/day + CPT-11 20 mg/kg/day i.p. once a day, 10 administrations
propertyMeasured: T/C (%)
Record the value in %, omitting the unit from your answer.

COc1ccc(/C(C#N)=C/c2ccc(O)c(O)c2)cc1OC; 160
COc1ccc(/C(C#N)=C/c2cccc(O)c2)cc1OC; 160

Okay, next one:
Please report the recorded T/C for CCOc1cc(/C=C(\C#N)c2ccc(OC)c(OC)c2)ccc1O .
162

====

- Test system: P388/BCRP cell line
- assayProcedure: Overcoming anticancer drug resistance in vivo (survival of tumor-implanted mice)
- Parameters: species or system CDF1 mice
- conditionDetails: Table 6; compound 100 mg/kg/day + CPT-11 20 mg/kg/day i.p. once a day, 10 administrations
Reported T/C by item:
Field: numeric (%). Do not append units.

Record excerpt, results attached:
N#C/C(=C\c1ccc(O)cc1)c1ccc(O)cc1; 160
COc1cc(/C=C(\C#N)c2ccc(OC)c(OC)c2)ccc1O; 167
COc1ccc(/C(C#N)=C/c2cccc(F)c2)cc1OC; 172
COc1ccc(/C(C#N)=C/c2ccc(O)cc2)cc1OC; 162

Next compound, please.
Please report the recorded T/C for COc1ccc(/C(C#N)=C/c2ccc(OC(C)=O)cc2)cc1OC .
165
